Assay details: protein stability index of a GFP-peptide fusion (GPS, HEK-293T) (PSI 1-6); higher = more stable;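 also: 24-mer peptide tiles fused after GFP, lentivirally expressed, FACS-sorted into six equal bins by GFP/DsRed ratio, decoded by Illumina sequencing, PSI is the read-weighted mean bin number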
Experimental parameters: treatment: MLN4924 1 uM, 8 h; c terminus: a fixed tail appended
# cutoff 3 applies to protein stability index; >= gives Y, < gives N

- Residues: "LIVGLQGMDLNLEAEALAGTGLVL [HDAC6]"
  Class name: "N"

Exercise: Kindly determine if protein stability index recorded for TAAPPPPPPSRPSVAVPPPPPNRM [WASL] is above or exactly 3.
Solution: Y

Exercise: Follow-up entry: LDSIIDDRVILSSSTSCLMPSKLF [CRYL1]
Solution: N

Exercise: Follow-up entry: SRRASESSLSSESSESSDAGLCMD [CDC25B]
Solution: Y

Exercise: Follow-up entry: SRIKVLETSYQQREERLRRENEEL [FBF1]
Solution: Y

Exercise: Follow-up entry: SSALHLSKGMSIFLDILRRADKND [NECAB1]
Solution: N

Exercise: Follow-up entry: FFPQHPNFCEPQDYRPMNHEAFKD [CDC25B]
Solution: Y

----------
Assay details: protein stability index of a GFP-peptide fusion (GPS, HEK-293T) (PSI 1-6); higher = more stable
Experimental parameters: treatment: MLN4924 1 uM, 8 h; c terminus: a fixed tail appended
protein stability index listing for selected sequences.
Give the figure by itself; no unit, no explanation.

Look over these answered cases.
- Residues: "DYELEDETRPAKRITITESNMKSR [WEE1]"
  protein stability index: 5.16
- Residues: "LPLSHIAAQMMDIWVPIKIGALTY [ACSBG2]"
  protein stability index: 2.73
- Residues: "LASGRIILILEGGYNLTSISESMA [HDAC6]"
  protein stability index: 2.82
- Residues: "SASSDEPYARIQQSRRQCHAEEDQ [SMIM2]"
  protein stability index: 5.63
- Residues: "PEGPEPAAPGKQPGRGHTHAAQGG [ELOA2]"
  protein stability index: 5.51
- Residues: "VCSDYASGYHYGVWSCEGCKAFFK [ESR2]"
  protein stability index: 2.56
- Residues: "TPVMEGYVEVKEGKTWKQICDKHW [LOXL2]"
  protein stability index: 3.51
- Residues: "MEGLEENGGVVQVGELLPCKICGR [ZC2HC1A]"
  protein stability index: 4.26
- Residues: "MSYSCCLPSLGCRTSCSSRPCVPP [KRT34]"
  protein stability index: 2.37
- Residues: "NELTLNEKNFFPEYNYDWWEKKPF [CHGB]"
  protein stability index: 3

Exercise: Any idea what protein stability index was measured for IAVRKSRDKAKMRNLETQHKVLEL [CEBPB] ?
Solution: 3.54

Exercise: Follow-up entry: FLGISIVGQSNERGDGGIYIGSIM [DVL3]
Solution: 2.61

Exercise: Follow-up entry: PRPPSNPPARGTLKTSNLPEELRK [TRAF3IP2]
Solution: 4.79

----------
Assay details: protein stability index of a GFP-peptide fusion (GPS, HEK-293T) (PSI 1-6); higher = more stable
Experimental parameters: treatment: DMSO; c terminus: a fixed tail appended
protein stability index listing for selected sequences.
Give the figure by itself; no unit, no explanation.

Look over these answered cases.
- Residues: "GLRAGFSSTSYRRTFGPPPSLSPG [PRPH]"
  protein stability index: 2.62
- Residues: "KEEGLPEEEPSHVTGREGFPTDAP [ZNF8]"
  protein stability index: 5.45
- Residues: "PHLMQEHMGTNVIVANTMPTHLSN [HNF4A]"
  protein stability index: 3.83
- Residues: "ANGTVIAEFILLGLLEAPGLQPVV [OR3A1]"
  protein stability index: 3.06
- Residues: "IICYSITDRRSFHEVREFKQLIYR [RIT1]"
  protein stability index: 2.41

Exercise: Any idea what protein stability index was measured for FQSRLPYQYLHYALFKANRLEKAV [P3H4] ?
Solution: 2.37

Exercise: Follow-up entry: QDRDALHMEGLIVRERILGADNID [FEM1B]
Solution: 4.38

Exercise: Follow-up entry: IVGYAFHFPHLLSPQIQRSAHRAL [TMEM175]
Solution: 2.23

Exercise: Follow-up entry: YAVENEHMNRLQSQRAMLLQGTES [VTI1B]
Solution: 3.94

Exercise: Follow-up entry: LVVILLSIVAVGFHIFRTLEVNRL [PKD2L1]
Solution: 3.44

Exercise: Follow-up entry: EKGRALQIRDWRGGRLENQKPRGL [ZSWIM9]
Solution: 4

Exercise: Follow-up entry: RADAHLGSSSVALPKEASDGTGAS [TOR1AIP2]
Solution: 5.5

Exercise: Follow-up entry: LCAYGFFASLRPSEPFLTPYLLGP [SLC19A2]
Solution: 2.94

Exercise: Follow-up entry: PLLLSHTLQELLARDTVQVELIPE [SNX8]
Solution: 2.71

Exercise: Follow-up entry: YEIEIQAEDGGAYLATAKVLITVE [PCDHGA10]
Solution: 2.96

Exercise: Follow-up entry: PDLRDIELKLGRKVPESLVRSLRG [LURAP1L]
Solution: 3.16

Exercise: Follow-up entry: LGSWLVPFAYLTVLDLSKSLSAAL [POMT2]
Solution: 3.19

Exercise: Follow-up entry: GQDKQFAWHCSESGQRLGGYRTSA [WDFY2]
Solution: 3.51

Exercise: Follow-up entry: VPLQLSAHWQCGATLTQVSVEYGY [FCHO1]
Solution: 2.76

Exercise: Follow-up entry: GPIGGMMPPQPGIPQQQGMRPPMP [ZNF207]
Solution: 4.35

Exercise: Follow-up entry: TPGIDLTRVLAEMREQYEAMAERN [KRT13]
Solution: 4.13

Exercise: Follow-up entry: EVREARDHKEPKEEINKNISDFGR [EHMT1]
Solution: 5.18

Exercise: Follow-up entry: GGYLQRTTYDRRSSQERKFMEERE [RSPH3]
Solution: 4.82

Exercise: Follow-up entry: WRMLRPQLVNSSADNMLEYKSWLK [PPEF2]
Solution: 2.64
